Data provenance: patent US20060063766A1

Where a name gives a salt, the structure may show the parent alone.
Property name: melting point

Below, 4 compounds whose answers are already recorded.
> print(dat)
                                   compound  property.name         result
1  CN1Cc2ccccc2C(c2nc3ccccc3s2)C1.O=C(O)/C=C\C(=O)O (racemic)  melting point  165 to 170 °C
2  CN1Cc2ccccc2C(c2nc3ccccc3o2)C1.O=C(O)/C=C\C(=O)O (racemic)  melting point  135 to 140 °C
3  CN1Cc2ccccc2C(C2=Cc3ccccc3C2)C1 (centres unmarked) (as salt: maleate)  melting point  184 to 187 °C
4  CN1Cc2ccccc2C(c2ccc3c(cnn3Cc3cccc(C#N)c3)c2)C1.O=C(O)/C=C\C(=O)O (centres unmarked)  melting point    83 to 88 °C

// sample COc1cccc2c1CN(C)CC2c1ccc2sccc2c1 (racemic) (as salt: fumarate) , its melting point was 197 to 199 °C

----------
Where a name gives a salt, the structure may show the parent alone.
Property name: melting point

Below, 4 compounds whose answers are already recorded.
> print(dat)
                                   compound  property.name         result
1  Cc1noc(C)c1-c1ccc2c(c1)CN(C)CC2c1ccc2ccccc2c1 (racemic) (as salt: maleate)  melting point    88 to 90 °C
2  CN1Cc2ccccc2C(c2ccc3c(Cl)c[nH]c3c2)C1 (racemic) (as salt: maleate)  melting point    94 to 98 °C
3  CN1Cc2cc(CN3CCOCC3)ccc2C(c2cc3ccccc3s2)C1 (single isomer, unassigned) (as salt: maleate)  melting point    80 to 82 °C
4  CC1c2ccccc2C(c2ccc3sccc3c2)CN1C (racemic) (as salt: fumarate)  melting point  179 to 181 °C

// sample CN1Cc2ccccc2C(c2cc(Cl)c3[nH]ncc3c2)C1 (single isomer, unassigned; (-)) (as salt: maleate) , its melting point was 104 to 110 °C

// sample CCN1Cc2ccccc2C(c2ccc3sccc3c2O)C1 (stereo not drawn) (as salt: fumarate) [Example 89 (−)] , its melting point was 155 to 157 °C

// sample COc1c(C2CN(C)Cc3ccccc32)ccc2sccc12 (stereo not drawn) (as salt: fumarate) [82 (+)] , its melting point was 97 to 99 °C

// sample CN1Cc2cc(-c3ncccn3)ccc2C(c2ccc3ccccc3c2)C1.O=C(O)/C=C\C(=O)O (stereo not shown) [Example 140] , its melting point was 84 to 85 °C

----------
Structures can show the parent of a compound that is named as a salt.
Property name: melting point

> print(dat)
                                   compound  property.name         result
1  CN1Cc2ccccc2C(c2cccc3ccsc23)C1 (racemic) (as salt: salt)  melting point  228 to 230 °C

// sample COc1c(C2CN(C)Cc3ccccc32)ccc2sccc12 (stereo not drawn) (as salt: fumarate) [Example 82 (−)] , its melting point was 94 to 96 °C

// sample CN1Cc2cc(N3CCCC3)ccc2C(c2cc3ccccc3s2)C1 (racemic) (as salt: maleate) , its melting point was 105 to 108 °C

// sample CN1Cc2ccccc2C(c2ccc3sccc3c2O)C1 (stereo not drawn) (as salt: fumarate) [Example 88 (+)] , its melting point was 213 to 215 °C

// sample CN1Cc2ccccc2C(c2ccc3[nH]ncc3c2)C1 (stereo not drawn) , its melting point was 167 to 169 °C

// sample Cc1noc(C)c1-c1ccc2c(c1)CN(C)CC2c1cc2ccccc2s1 (racemic) (as salt: maleate) , its melting point was 92 to 95 °C

----------
Structures can show the parent of a compound that is named as a salt.
Property name: melting point

> print(dat)
                                   compound         result
1  Cc1cccc2c1CN(C)CC2c1ccc2ccccc2c1 (centres unmarked) (as salt: hydrochloride)  210 to 214 °C

// sample CN1Cc2cc(-c3ccc(N(C)C)nn3)ccc2C(c2ccc3sccc3c2)C1 (centres unmarked) (as salt: fumarate) , its melting point was 116 to 119 °C

// sample CCN1Cc2ccccc2C(c2ccc3sccc3c2OC)C1 (centres unmarked) (as salt: fumarate) , its melting point was 91 to 92 °C

// sample CN1Cc2cc(-c3ncccn3)ccc2C(c2ccc3ccccc3c2)C1.O=C(O)/C=C\C(=O)O (stereo not drawn) [Example 140 (−)-enantiomer] , its melting point was 86 to 88 °C

// sample CN1Cc2ccccc2C(c2ccc3[nH]ncc3c2)C1.O=C(O)/C=C/C(=O)O (centres unmarked) , its melting point was 83 to 88 °C

// sample CN1Cc2c(cccc2N2CCOCC2)C(c2ccc3sccc3c2)C1.O=C(O)/C=C/C(=O)O (racemic) , its melting point was 148 to 153 °C

// sample CN1Cc2cc(C#N)ccc2C(c2cc3ccccc3s2)C1 (stereo not drawn) (as salt: maleate) [Example 79 (+)] , its melting point was 91 to 94 °C

// sample CN1Cc2ccccc2C(c2ccc3sccc3c2O)C1 (stereo not drawn) (as salt: fumarate) [Example 88 (−)] , its melting point was 214 to 216 °C
